Overview of reported IC50 across a group of compounds:
- study_system: PDE10A1 (Homo sapiens, UniProt Q9Y233)
- Sequence (Q9Y233 1-779 isoform Q9Y233-1): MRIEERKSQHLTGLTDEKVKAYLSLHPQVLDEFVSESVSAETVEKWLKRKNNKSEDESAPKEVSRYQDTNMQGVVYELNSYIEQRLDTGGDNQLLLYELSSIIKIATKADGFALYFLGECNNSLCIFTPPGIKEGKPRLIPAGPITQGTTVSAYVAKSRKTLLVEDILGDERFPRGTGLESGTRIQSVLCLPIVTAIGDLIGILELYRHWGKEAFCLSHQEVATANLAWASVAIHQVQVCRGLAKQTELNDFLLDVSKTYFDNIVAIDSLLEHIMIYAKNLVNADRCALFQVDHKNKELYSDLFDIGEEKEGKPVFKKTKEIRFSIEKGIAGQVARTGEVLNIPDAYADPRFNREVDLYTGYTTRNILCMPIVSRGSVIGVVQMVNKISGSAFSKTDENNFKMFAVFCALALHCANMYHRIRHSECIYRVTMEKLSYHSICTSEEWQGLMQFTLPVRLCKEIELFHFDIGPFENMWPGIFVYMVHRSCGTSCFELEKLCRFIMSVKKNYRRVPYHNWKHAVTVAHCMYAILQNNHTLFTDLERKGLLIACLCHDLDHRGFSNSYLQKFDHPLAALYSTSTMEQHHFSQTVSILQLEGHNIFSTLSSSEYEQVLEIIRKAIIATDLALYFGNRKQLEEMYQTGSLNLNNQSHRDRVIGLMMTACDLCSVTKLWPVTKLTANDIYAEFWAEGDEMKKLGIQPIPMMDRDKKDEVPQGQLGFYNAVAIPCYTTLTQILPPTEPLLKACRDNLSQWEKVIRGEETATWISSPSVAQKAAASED
- assay_remarks: Inhibition of phosphodiesterase activity, [3H]-cAMP hydrolysis, recombinant PDE10A1
- reported_conditions: human recombinant PDE10A1, cAMP 0.2 μmol/L; read-out: IC50(μmol/L) PDE10
property_measured: IC50

COc1ccc(-c2ccc(=O)n(Cc3ccccc3)n2)c2c(C(=O)O)c(C(C)C)nn12 [Example 267] :: > 10 µmol/L
CCc1cc2c(C3=NNC(=O)CC3C)cc(Cl)cn2n1 (single isomer, unassigned; (+)) [Example 313] :: 0.1 to 1 µmol/L
CCc1cc2c(C3=NN(Cc4cccnc4)C(=O)CC3C)cc(Cl)cn2n1 (centres unmarked) [Example 312] :: > 10 µmol/L
CCc1cc2c(C3=NNC(=O)CC3C)ccc(OC)n2n1 (centres unmarked) [Example 216] :: 1 to 10 µmol/L
COc1ccc(C2=NNC(=O)C(C)C2)c2cc(C(C)C)nn12 (centres unmarked) [Example 283] :: > 10 µmol/L
CCc1cc2c(C3=NNC(=O)CC3C)cc(Cl)cn2n1 (single isomer, unassigned; (-)) [Example 314] :: > 10 µmol/L
COc1ccc(C2=NN(Cc3ccccc3)C(=O)CC2)c2cc(C(C)C)nn12 [Example 284] :: 1 to 10 µmol/L
CCc1cc2c(C3=NNC(=O)CC3C)cccn2n1 (centres unmarked) [Example 201] :: 1 to 10 µmol/L
CCc1cc2c(C3=NNC(=O)CC3C)ccc(OC)n2n1 (single isomer, unassigned; (-)) [Example 316] :: > 10 µmol/L
COc1ccc(-c2ccc(=O)n(Cc3ccccc3)n2)c2cc(C(C)C)nn12 [Example 272] :: 0.1 to 1 µmol/L
COc1ccc(C2=NNC(=O)CC2C)c2cc(C(C)C)nn12 (centres unmarked) [Example 282] :: 1 to 10 µmol/L

----------
- study_system: PDE4Bcat (Homo sapiens, UniProt Q07343)
- Construct: catalytic domain (indicated as “cat,” hereinafter), PDE4Bcat
- Sequence (Q07343 330-659 limits assumed): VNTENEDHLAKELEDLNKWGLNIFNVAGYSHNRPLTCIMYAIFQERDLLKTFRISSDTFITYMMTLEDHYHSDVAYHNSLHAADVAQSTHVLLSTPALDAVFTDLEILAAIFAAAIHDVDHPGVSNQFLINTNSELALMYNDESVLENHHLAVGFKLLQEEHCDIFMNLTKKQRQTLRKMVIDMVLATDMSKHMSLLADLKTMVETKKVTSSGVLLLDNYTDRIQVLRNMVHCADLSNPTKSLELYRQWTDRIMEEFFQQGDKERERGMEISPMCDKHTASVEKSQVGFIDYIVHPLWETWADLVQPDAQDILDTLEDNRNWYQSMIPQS
- assay_remarks: Inhibition of phosphodiesterase activity, [3H]-cAMP hydrolysis, recombinant PDE4Bcat
- reported_conditions: cAMP 2 μmol/L, read-out: IC50(μmol/L) PDE4
Overview of reported IC50 across a group of compounds:
property_measured: IC50

CCc1cc2c(C3=NNC(=O)CC3C)ccc(S(C)(=O)=O)n2n1 (stereo not drawn) :: 1 to 10 µmol/L
COc1ccc(-c2nn(C)c(=O)cc2C)c2cc(C(C)C)nn12 :: < 1 µmol/L
CCc1cc2c(C3=NNC(=O)CC3C)ccc(NC(C)=O)n2n1 (stereo not drawn) :: > 10 µmol/L

----------
- study_system: PDE3A catalytic domain (PDE3Acat) (Homo sapiens, UniProt Q14432)
- Construct: cDNA fragments of PDE3A catalytic domain (indicated as “cat,” hereinafter); made in house; host or cells: Sf9 insect cells (baculovirus, Bac-to-Bac)
- Sequence (Q14432 674-1093 limits assumed): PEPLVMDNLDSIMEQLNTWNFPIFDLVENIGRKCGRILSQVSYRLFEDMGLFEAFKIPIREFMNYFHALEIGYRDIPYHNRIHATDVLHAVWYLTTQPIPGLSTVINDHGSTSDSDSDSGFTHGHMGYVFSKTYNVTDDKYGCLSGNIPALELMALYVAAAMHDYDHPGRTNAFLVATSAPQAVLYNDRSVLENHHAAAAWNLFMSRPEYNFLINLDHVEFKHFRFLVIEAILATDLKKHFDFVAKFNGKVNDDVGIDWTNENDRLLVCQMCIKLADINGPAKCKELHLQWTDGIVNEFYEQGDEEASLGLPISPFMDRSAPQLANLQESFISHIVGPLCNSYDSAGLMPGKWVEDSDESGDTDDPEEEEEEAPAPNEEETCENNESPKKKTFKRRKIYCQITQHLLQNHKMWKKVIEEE
- assay_remarks: Inhibition of phosphodiesterase activity, [3H]-cAMP hydrolysis, recombinant PDE3Acat
- Assay type: biochemical
- reported_conditions: human recombinant PDE3Acat, cAMP 2 μmol/L; read-out: IC50(μmol/L) PDE3
- Description: RT-PCR was performed to isolate cDNA fragments of PDE3A catalytic domain (indicated as “cat,” hereinafter), PDE4Bcat, PDE5Acat and PDE10A1 from human RNA. Using Gateway system (Invitrogen) and Bac-to-Bac (registered trademark) Baculovirus Expression system (Invitrogen), the isolated cDNA fragments were transfected into Sf9 insect cells for expression of the PDE proteins. […]
Overview of reported IC50 across a group of compounds:
property_measured: IC50

COc1ccc(C2=NNC(=O)CC2C)c2cc(C(C)C)nn12 (stereo not shown) :: 1 to 10 µmol/L
CCc1cc2c(-c3ccc(=O)[nH]n3)ccc(OC)n2n1 :: 1 to 10 µmol/L
CCc1cc2c(C3=NNC(=O)CC3C)cc(Cl)cn2n1 (single isomer, unassigned; (+)) [Example 313] :: 1 to 10 µmol/L
CCOc1ccc(C2=NNC(=O)CC2C)c2cc(CC)nn12 (stereo not shown) :: 1 to 10 µmol/L
COCc1cc2c(C3=NNC(=O)CC3C)ccc(OC)n2n1 (stereo not shown) :: 1 to 10 µmol/L
COC(=O)c1c(C(C)C)nn2c(OC)ccc(-c3ccc(=O)n(Cc4ccccc4)n3)c12 :: > 10 µmol/L
CCc1cc2c(C3=NN(Cc4cccnc4)C(=O)CC3C)cc(Cl)cn2n1 (stereo not shown) :: > 10 µmol/L
COc1ccc(C2=NNC(=O)C(C)C2)c2cc(C(C)C)nn12 (stereo not shown) :: > 10 µmol/L
COc1ccc(-c2ccc(=O)n(Cc3ccncc3)n2)c2cc(C(C)C)nn12 :: > 10 µmol/L
CCc1cc2c(C3=NNC(=O)CC3C)ccc(SC)n2n1 (stereo not shown) :: 1 to 10 µmol/L
CCC1CC(=O)NN=C1c1ccc(OC)n2nc(C(F)(F)F)cc12 (stereo not shown) :: > 10 µmol/L
COc1ccc(C2=NNC(=O)CC2C)c2cc(C(C)F)nn12 (stereo not shown) :: 1 to 10 µmol/L
COc1ccc(-c2cc(C)c(=O)[nH]n2)c2cc(C(C)C)nn12 :: > 10 µmol/L
CCc1nn2c([S+](C)[O-])ccc(C3=NNC(=O)CC3C)c2c1O (stereo not shown) :: 1 to 10 µmol/L
CCc1cc2c(C3=NNC(=O)CC3)cc(Cl)cn2n1 :: > 10 µmol/L
COc1ccc(C2=NNC(=O)CC2C)c2cc(C3CC3)nn12 (stereo not shown) :: 1 to 10 µmol/L
CCc1cc2c(C3=NNC(=O)CC3C)ccc(NC(C)=O)n2n1 (stereo not shown) :: 1 to 10 µmol/L
CCCc1cc2c(C3=NNC(=O)CC3C)ccc(OC)n2n1 (stereo not shown) :: 1 to 10 µmol/L
COc1ccc(C2=NNC(=O)CC2C)c2cc(CO)nn12 (stereo not shown) :: 1 to 10 µmol/L
COc1ccc(C2=NNC(=O)CC2C)c2ccnn12 (stereo not shown) :: < 1 µmol/L
CCc1cc2c(C3=NNC(=O)CC3C)cccn2n1 (stereo not shown) :: 1 to 10 µmol/L
CCc1nn2c(OC)ccc(C3=NNC(=O)CC3C)c2c1Cl (stereo not shown) :: > 10 µmol/L
